Test system: rodent lifetime carcinogenesis bioassay, tumor incidence TD50
ASSAY METHOD TEXT: carcinogenic potency in animals, long-term in vivo studies, CPDB compilation (AID 1745844)
MEASUREMENT SETUP: mouse; strain BALB/cStCrlfC3Hf/Nctr; males; in drinking water; site: lung; lesion: several types; types named in the paper; dosed 112 weeks; study length 112 weeks
REPORTED PROPERTY: TD50

query: Using the record for Cc1cc(-c2ccc(N)c(C)c2)ccc1N , report its TD50.
result: 28.6 mg/kg/day

----------
Tested on: rodent lifetime carcinogenesis bioassay, tumor incidence TD50
ASSAY METHOD TEXT: carcinogenic potency in animals, long-term in vivo studies, CPDB compilation (AID 1745844)
MEASUREMENT SETUP: rat; strain Fischer 344; males; in drinking water; site: esophagus; lesion: several types; types named in the paper; dosed 30 weeks; study length 75 weeks
REPORTED PROPERTY: TD50

query: Query the reported TD50 for rodent lifetime carcinogenesis bioassay, tumor incidence TD50; item: CC(O)CN(C)N=O (stereo unspecified)
result: 0.17 mg/kg/day

----------
Test system: rodent lifetime carcinogenesis bioassay, tumor incidence TD50
ASSAY METHOD TEXT: carcinogenic potency in animals, long-term in vivo studies, CPDB compilation (AID 1745844)
MEASUREMENT SETUP: rat; strain Wistar; females; in feed; site: any site (literature study); lesion: malignant tumor; dosed 75 weeks; study length 75 weeks
REPORTED PROPERTY: TD50 (mg/kg/day)
Give your result in mg/kg/day as a bare value.

query: Using the record for COc1cc2c(cc1N)oc1ccccc12 , report its TD50.
result: 43.9

----------
Test system: rodent lifetime carcinogenesis bioassay, tumor incidence TD50
ASSAY METHOD TEXT: carcinogenic potency in animals, long-term in vivo studies, CPDB compilation (AID 1745844)
MEASUREMENT SETUP: mouse; strain B6C3F1; females; in feed; site: subcutaneous tissue; lesion: hemangiosarcoma; dosed 49 weeks; study length 49 weeks
REPORTED PROPERTY: TD50

query: Using the record for Cc1ccc2c(c1[N+](=O)[O-])C(=O)c1ccccc1C2=O , report its TD50.
result: 1.88 mg/kg/day

----------
System: rodent lifetime carcinogenesis bioassay, tumor incidence TD50
ASSAY METHOD TEXT: carcinogenic potency in animals, long-term in vivo studies, CPDB compilation (AID 1745844)
MEASUREMENT SETUP: mouse; strain B6C3F1; females; in feed; site: any site (literature study); lesion: one or several types; types not named; dosed 78 weeks; study length 83 weeks
Calls of active or inactive are those of the source. No rule for the calls is given here.
REPORTED PROPERTY: TD50

query: Using the record for CC1CC(C)(C)CC(OOC(C)(C)C)(OOC(C)(C)C)C1 (stereo unspecified) , report its TD50.
result: 4230 mg/kg/day (inactive)

----------
Tested on: rodent lifetime carcinogenesis bioassay, tumor incidence TD50
ASSAY METHOD TEXT: carcinogenic potency in animals, long-term in vivo studies, CPDB compilation (AID 1745844)
MEASUREMENT SETUP: mouse; strain Charles River CD1; females; in feed; site: lung; lesion: alveolar-cell carcinoma; dosed 104 weeks; study length 104 weeks
Calls of active or inactive are those of the source. The rule behind the calls is not given here.
REPORTED PROPERTY: TD50

query: Query the reported TD50 for rodent lifetime carcinogenesis bioassay, tumor incidence TD50; item: CCN(Cc1cccc(S(=O)(=O)O)c1)c1ccc(C(=C2C=CC(=[N+](CC)Cc3cccc(S(=O)(=O)O)c3)C=C2)c2ccccc2S(=O)(=O)[O-])cc1
result: 607000 mg/kg/day (inactive)
